tested on: human colic adenocarcinoma cell line HT29; test: HT29 cell survival (MTT assay) after 24 h incubation, with or without light irradiation; conditions: 50% effect; with light
assayEndpoint: Photocytotoxicity HT 29, concentration giving 50% (µg/mL)
Your answer is read as µg/mL, so omit the unit and give the number.

Which Photocytotoxicity HT 29, concentration giving 50% value is on record for `OC[C@H]1O[C@H](OCCOCCOc2ccc(-c3c4nc(c(-c5ccc(OCCOCCO[C@H]6O[C@H](CO)[C@@H](O)[C@H](O)[C@@H]6O)cc5)c5ccc([nH]5)c(-c5ccc(OCCOCCO[C@H]6O[C@H](CO)[C@@H](O)[C@H](O)[C@@H]6O)cc5)c5nc(c(-c6ccccc6)c6ccc3[nH]6)C=C5)C=C4)cc2)[C@@H](O)[C@@H](O)[C@@H]1O` ?
1.5

Attention now shifts to the item below.
What value of Photocytotoxicity HT 29, concentration giving 50% has been recorded for this entry: `O[C@@H]1[C@@H](O)[C@H](Sc2c(F)c(F)c(-c3c4nc(c(-c5c(F)c(F)c(S[C@@H]6OC[C@@H](O)[C@H](O)[C@H]6O)c(F)c5F)c5ccc([nH]5)c(-c5c(F)c(F)c(S[C@@H]6OC[C@@H](O)[C@H](O)[C@H]6O)c(F)c5F)c5nc(c(-c6c(F)c(F)c(S[C@@H]7OC[C@@H](O)[C@H](O)[C@H]7O)c(F)c6F)c6ccc3[nH]6)C=C5)C=C4)c(F)c2F)OC[C@H]1O`
7.5

###

system: RBY-79 (indifferently named Y-79) cells; experiment: RBY-79 (Y79) cell cytotoxicity / photocytotoxicity; conditions: 50% effect; with light
Photocytotoxicity RBY-79, concentration giving 50% for assorted compounds
Give just the numeric value; µg/mL need not be written.

Suppose we examine the compound OC[C@H]1O[C@H](SCCOCCOc2ccc(-c3c4nc(c(-c5ccc(OCCOCCS[C@H]6O[C@H](CO)[C@@H](O)[C@H](O)[C@@H]6O)cc5)c5ccc([nH]5)c(-c5ccc(OCCOCCS[C@H]6O[C@H](CO)[C@@H](O)[C@H](O)[C@@H]6O)cc5)c5nc(c(-c6ccccc6)c6ccc3[nH]6)C=C5)C=C4)cc2)[C@@H](O)[C@@H](O)[C@@H]1O [Compound 68, TPP(p-O-DEG-S-α-Mann)3] ; what Photocytotoxicity RBY-79, concentration giving 50% value has been reported?
1

Next:
What value of measured Photocytotoxicity RBY-79, concentration giving 50% is listed for O[C@@H]1[C@@H](O)[C@H](Sc2c(F)c(F)c(-c3c4nc(c(-c5c(F)c(F)c(S[C@@H]6OC[C@@H](O)[C@H](O)[C@H]6O)c(F)c5F)c5ccc([nH]5)c(-c5c(F)c(F)c(S[C@@H]6OC[C@@H](O)[C@H](O)[C@H]6O)c(F)c5F)c5nc(c(-c6c(F)c(F)c(F)c(F)c6F)c6ccc3[nH]6)C=C5)C=C4)c(F)c2F)OC[C@H]1O [Compound 28, TPP F4(p-S-β-XylOH)3] ?
1.7

###

test system: L-1210 cells; test: Cytotoxicity L-1210 (no light), cytostatic activity; type: cell-based, human; settings: 10 μg/ml; no light
Here the recorded Cytotoxicity L-1210 (no light), % at 10 μg/ml is given for each entry.
The response must be a number in % 10 μg/ml with no trailing unit.

In the examples that follow, each entry is paired with its recorded Cytotoxicity L-1210 (no light), % at 10 μg/ml.
Any idea what its Cytotoxicity L-1210 (no light), % at 10 μg/ml is? The compound is `OC[C@H]1O[C@H](SCCOCCOc2ccc(-c3c4nc(c(-c5ccc(OCCOCCS[C@H]6O[C@H](CO)[C@@H](O)[C@H](O)[C@@H]6O)cc5)c5ccc([nH]5)c(-c5ccc(OCCOCCS[C@H]6O[C@H](CO)[C@@H](O)[C@H](O)[C@@H]6O)cc5)c5nc(c(-c6ccccc6)c6ccc3[nH]6)C=C5)C=C4)cc2)[C@@H](O)[C@@H](O)[C@@H]1O`
0

Given the entry `OC[C@H]1O[C@@H](Sc2c(F)c(F)c(-c3c4nc(c(-c5c(F)c(F)c(S[C@@H]6O[C@H](CO)[C@@H](O)[C@H](O)[C@H]6O)c(F)c5F)c5ccc([nH]5)c(-c5c(F)c(F)c(S[C@@H]6O[C@H](CO)[C@@H](O)[C@H](O)[C@H]6O)c(F)c5F)c5nc(c(-c6c(F)c(F)c(S[C@@H]7O[C@H](CO)[C@@H](O)[C@H](O)[C@H]7O)c(F)c6F)c6ccc3[nH]6)C=C5)C=C4)c(F)c2F)[C@H](O)[C@@H](O)[C@@H]1O` , report its measured Cytotoxicity L-1210 (no light), % at 10 μg/ml.
18

Below: the item to evaluate.
So what does the record say about Cytotoxicity L-1210 (no light), % at 10 μg/ml for `OC[C@H]1O[C@H](SCc2ccc(-c3c4nc(c(-c5ccc(CS[C@H]6O[C@H](CO)[C@@H](O)[C@H](O)[C@@H]6O)cc5)c5ccc([nH]5)c(-c5ccc(CS[C@H]6O[C@H](CO)[C@@H](O)[C@H](O)[C@@H]6O)cc5)c5nc(c(-c6ccc(CS[C@H]7O[C@H](CO)[C@@H](O)[C@H](O)[C@@H]7O)cc6)c6ccc3[nH]6)C=C5)C=C4)cc2)[C@@H](O)[C@@H](O)[C@@H]1O` ?
0
